system: PPARg homodimer (NR concentration 180 nM); experiment: PBM binding z-score (relative to random genomic background probes); higher = stronger binding; sequences stand for … in GC…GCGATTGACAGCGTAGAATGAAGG
readout.name: PBM binding z-score

INSERT INTO assay_data (chain, assay_value) VALUES
  ('TCATATAGGTAAATGCTAGGTGAATGTCCGATCT', 0.769),
  ('CCTTACGGGTCACTCCAGGTGATAGCATCGGAGT', 1.04),
  ('CCTGCTAGGTCATCGTCAGCTAATCTACAGTATG', 0.929),
  ('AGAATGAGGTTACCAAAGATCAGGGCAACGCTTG', 0.848),
  ('CCGACTGGGGCAAAGGTTAGCATACTCAGTACGA', 1.58),
  ('CGAACGACGGCATGAGTTGATAGCAAATGCCGAT', -0.497);
